target-or-system: human ACC2 (Homo sapiens)
Sequence (O00763 whole entry): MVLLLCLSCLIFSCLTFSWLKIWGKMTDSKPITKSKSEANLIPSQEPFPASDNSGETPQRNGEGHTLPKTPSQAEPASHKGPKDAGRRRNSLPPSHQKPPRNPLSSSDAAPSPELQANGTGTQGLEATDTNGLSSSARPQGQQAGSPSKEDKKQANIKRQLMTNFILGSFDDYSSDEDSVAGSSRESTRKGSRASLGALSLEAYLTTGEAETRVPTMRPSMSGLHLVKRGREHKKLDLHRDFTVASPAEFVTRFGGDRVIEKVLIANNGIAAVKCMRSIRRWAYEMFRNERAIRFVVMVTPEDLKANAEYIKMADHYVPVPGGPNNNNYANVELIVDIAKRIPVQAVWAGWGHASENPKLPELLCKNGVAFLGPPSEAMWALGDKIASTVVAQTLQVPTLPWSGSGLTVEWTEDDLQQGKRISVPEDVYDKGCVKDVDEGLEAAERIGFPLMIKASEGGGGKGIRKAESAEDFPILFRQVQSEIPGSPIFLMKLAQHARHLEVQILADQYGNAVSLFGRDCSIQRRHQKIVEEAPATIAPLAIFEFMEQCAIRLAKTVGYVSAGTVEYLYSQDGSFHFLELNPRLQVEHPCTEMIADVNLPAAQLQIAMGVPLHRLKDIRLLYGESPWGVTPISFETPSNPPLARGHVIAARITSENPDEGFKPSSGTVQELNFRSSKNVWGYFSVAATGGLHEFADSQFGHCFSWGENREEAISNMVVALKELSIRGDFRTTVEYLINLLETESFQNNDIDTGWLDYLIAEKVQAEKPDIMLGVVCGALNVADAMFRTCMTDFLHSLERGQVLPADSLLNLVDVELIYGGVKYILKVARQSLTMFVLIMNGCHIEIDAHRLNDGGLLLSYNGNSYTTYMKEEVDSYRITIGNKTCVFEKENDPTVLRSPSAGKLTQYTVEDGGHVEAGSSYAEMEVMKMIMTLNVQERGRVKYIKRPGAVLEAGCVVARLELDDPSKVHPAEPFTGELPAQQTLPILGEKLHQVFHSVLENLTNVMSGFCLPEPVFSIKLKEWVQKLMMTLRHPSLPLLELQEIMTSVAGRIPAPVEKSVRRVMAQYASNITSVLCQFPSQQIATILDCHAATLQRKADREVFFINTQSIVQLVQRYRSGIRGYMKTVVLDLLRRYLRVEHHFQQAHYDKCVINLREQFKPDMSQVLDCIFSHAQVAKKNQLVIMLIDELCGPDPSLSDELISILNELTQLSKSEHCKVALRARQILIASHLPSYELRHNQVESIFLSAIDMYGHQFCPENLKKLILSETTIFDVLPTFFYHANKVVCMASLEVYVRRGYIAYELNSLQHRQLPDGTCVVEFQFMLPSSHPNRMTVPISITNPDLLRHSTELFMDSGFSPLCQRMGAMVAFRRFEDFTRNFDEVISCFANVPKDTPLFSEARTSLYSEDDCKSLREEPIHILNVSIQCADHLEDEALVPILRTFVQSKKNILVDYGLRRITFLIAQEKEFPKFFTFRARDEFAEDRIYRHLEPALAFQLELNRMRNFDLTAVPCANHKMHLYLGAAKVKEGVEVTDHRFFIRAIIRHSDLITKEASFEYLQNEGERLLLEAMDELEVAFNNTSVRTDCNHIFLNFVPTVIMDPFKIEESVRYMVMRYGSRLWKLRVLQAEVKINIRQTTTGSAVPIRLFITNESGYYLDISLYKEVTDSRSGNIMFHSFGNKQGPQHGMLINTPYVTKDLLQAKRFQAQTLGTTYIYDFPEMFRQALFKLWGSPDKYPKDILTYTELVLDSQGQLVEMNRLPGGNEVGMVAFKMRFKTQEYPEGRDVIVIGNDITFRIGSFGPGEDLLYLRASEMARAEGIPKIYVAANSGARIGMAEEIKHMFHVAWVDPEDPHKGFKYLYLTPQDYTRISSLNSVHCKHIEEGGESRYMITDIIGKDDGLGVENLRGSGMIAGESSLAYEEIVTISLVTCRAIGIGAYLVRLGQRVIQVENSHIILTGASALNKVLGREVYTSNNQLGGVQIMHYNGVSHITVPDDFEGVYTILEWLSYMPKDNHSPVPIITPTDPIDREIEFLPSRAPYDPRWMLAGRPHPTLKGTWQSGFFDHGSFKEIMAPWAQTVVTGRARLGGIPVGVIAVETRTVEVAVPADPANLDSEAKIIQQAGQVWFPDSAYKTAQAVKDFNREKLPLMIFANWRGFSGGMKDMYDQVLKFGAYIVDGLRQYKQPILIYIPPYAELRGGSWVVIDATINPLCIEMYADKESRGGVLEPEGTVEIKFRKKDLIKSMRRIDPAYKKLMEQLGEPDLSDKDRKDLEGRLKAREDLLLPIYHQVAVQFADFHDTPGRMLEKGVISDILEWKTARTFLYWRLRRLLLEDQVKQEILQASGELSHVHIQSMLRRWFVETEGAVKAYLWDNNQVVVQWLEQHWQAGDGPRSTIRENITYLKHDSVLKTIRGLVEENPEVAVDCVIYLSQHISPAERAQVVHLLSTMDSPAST
measurement-protocol: Acetyl CoA carboxylase (ACC) activity inhibition test, human ACC2
Format: biochemical
measurement-context: 1 μmol/liter compound; read-out: Inhibition (%) by 1 μmol/liter Chemical, human ACC2
Form field: inhibition at 1 µM (one value per entry).

| molecule | uom | inhibition at 1 µM |
| --- | --- | --- |
| CCOc1cc(C(=O)N2CCC3(CC2)CC(=O)c2cc(-c4cnn(C)c4)ccc2O3)cc(OCC)c1-c1cccc(C(=O)O)c1 [Example 20] | % | 99 |
| CCOc1cc(C(=O)N2CCC3(CC2)CC(=O)c2cc(-c4ccc(C(N)=O)cc4)ccc2O3)cc(OCC)c1-c1ccc(C(=O)O)cc1 [Example 3] | % | 99 |
| Cc1nn(-c2ccc(C(=O)O)cc2)c2ccc(C(=O)N3CCC4(CC3)CC(=O)c3cc(-c5cnn(C)c5)ccc3O4)cc12 [Example 13] | % | 99 |
